# System: Staphylococcus aureus A 321
# procedure_text: in vivo infection test in mice
# condition_summary: A321, in Mus musculus, po
observed_property: ED50 (mg/kg)
Enter your answer as a number in mg/kg; do not include the unit.

Please review the following examples before continuing.
compound: CC(=O)OCC1=C(C(=O)O)N2C(=O)[C@@H](NC(=O)Cc3cccs3)[C@H]2SC1 [Cephalotin, reference compound]
units_of_measure: mg/kg
ED50: 14.7
//
compound: CC1=C(C(=O)O)N2C(=O)C(NC(=O)Cc3cc(-c4c(Cl)cccc4Cl)no3)C2SC1 (stereo not drawn) [Example IV]
units_of_measure: mg/kg
ED50: 50.1

Consider the additional compound presented here.
# input What measured ED50 goes with CC(=O)OCC1=C(C(=O)O)N2C(=O)C(NC(=O)Cc3cc(-c4c(C)cc(C)cc4C)no3)C2SC1 (stereo not drawn) [VII] ?
# output 70
